Test system: RARb:RXRa (NR concentration 270 nM, RXRa partner concentration 90 nM)
protocol.details: PBM binding z-score (relative to random genomic background probes); higher = stronger binding; sequences stand for … in GC…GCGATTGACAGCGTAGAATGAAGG
# label = Satisfied if PBM binding z-score >= 3 else Not satisfied

[[record]]
sequence = "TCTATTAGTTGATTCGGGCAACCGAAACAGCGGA"
class_name = "Not satisfied"

[[record]]
sequence = "TCTGCTAGGTCAACGATGGTGAGCTAATCTGCTA"
class_name = "Satisfied"

[[record]]
sequence = "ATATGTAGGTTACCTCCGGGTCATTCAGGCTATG"
class_name = "Not satisfied"

[[record]]
sequence = "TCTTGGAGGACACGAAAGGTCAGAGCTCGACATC"
class_name = "Satisfied"


Field: next sequence
Task: Determine whether this sequence has PBM binding z-score no lower than 3: GCGACCGGGGCATCAGCAGGTTACCATAACTTAA
Output: Not satisfied

All values here come from the supplement of paper PMC6555819.
